# Tested on: HUVEC
# experiment-notes: cells
# conditions-used: chemotherapeutic combined with Cilengitide
outcome-measure: additive effect with Cilengitide

[
  {
    "molecule": "CC[C@]1(O)C[C@H]2CN(CCc3c([nH]c4ccccc34)[C@@](C(=O)OC)(c3cc4c(cc3OC)N(C=O)[C@H]3[C@@](O)(C(=O)OC)[C@H](OC(C)=O)[C@]5(CC)C=CCN6CC[C@]43[C@@H]65)C2)C1 [Vincrisitin]",
    "outcome-measure": "additive effect with Cilengitide",
    "value-reported": "yes"
  },
  {
    "molecule": "COc1cccc2c1C(=O)c1c(O)c3c(c(O)c1C2=O)C[C@@](O)(C(=O)CO)C[C@@H]3O[C@H]1C[C@H](N)[C@H](O)[C@H](C)O1 [Doxorubicin]",
    "outcome-measure": "additive effect with Cilengitide",
    "value-reported": "yes"
  },
  {
    "molecule": "Nc1ccn([C@@H]2O[C@H](CO)[C@@H](O)C2(F)F)c(=O)n1 [Gemcitabine]",
    "outcome-measure": "additive effect with Cilengitide",
    "value-reported": "yes"
  },
  {
    "molecule": "CC(=O)O[C@H]1C(=O)[C@@]2(C)[C@H]([C@H](OC(=O)c3ccccc3)[C@]3(O)C[C@H](OC(=O)[C@H](O)[C@@H](NC(=O)c4ccccc4)c4ccccc4)C(C)=C1C3(C)C)[C@]1(OC(C)=O)CO[C@@H]1C[C@@H]2O [Taxol, Paclitaxel]",
    "outcome-measure": "additive effect with Cilengitide",
    "value-reported": "yes"
  }
]
